Target: T1, human B7-H4 (purified monomeric recombinant human protein, ACRO biosystems) (human, UniProt Q7Z7D3 29-258, limits assumed, chemically biotinylated (EZ-Link NHS-LC-Biotin) in the yeast display and competition experiments; non-biotinylated in SPR)
T1 construct: Bought recombinant monomeric protein; also called B7x; B7S1
T1 sequence: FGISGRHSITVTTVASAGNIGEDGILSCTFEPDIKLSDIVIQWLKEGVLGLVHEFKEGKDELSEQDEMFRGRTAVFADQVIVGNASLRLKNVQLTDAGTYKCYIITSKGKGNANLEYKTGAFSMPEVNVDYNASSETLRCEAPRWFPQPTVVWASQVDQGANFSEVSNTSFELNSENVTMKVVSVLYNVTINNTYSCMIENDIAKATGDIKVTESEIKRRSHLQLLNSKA
Experiment: SPR (Carterra LSA); scFv-Fc captured on anti-human IgG Fc, antigen injected
// reported kon for each item listed
All answers are understood in M⁻¹ s⁻¹, so give the number only.

BINDER	UNIT_STRING	kon
B10 scFv-Fc (scFv, V domains shown, Tested as scFv-Fc fusion (human IgG1 Fc, vector pDNL9) in crude yeast supernatant; Combo 2 library) VH: EVQLVESGGGVVQPGRSLRLSCAASGFTFSTRAMNWVRQAPGKGLEWVSAISGTGDTTYYADSVKGRFTISRDNSKNTLYLQMNSLRAEDTAVYYCARKRWYGMDVWGQGTTVTVSS VL: SYELTQPPSVSVAPGKTARITCGGNNIGSKSVHWYQQKPGQAPVLVVYDDSDRPSGIPERFSGSNSGNTATLTISRVEAGDEADYYCQVWGRYQMIFGTGTKLTVL	M⁻¹ s⁻¹	260000
A07 scFv-Fc (scFv, V domains shown, Tested as scFv-Fc fusion (human IgG1 Fc, vector pDNL9) in crude yeast supernatant; Combo 2 library) VH: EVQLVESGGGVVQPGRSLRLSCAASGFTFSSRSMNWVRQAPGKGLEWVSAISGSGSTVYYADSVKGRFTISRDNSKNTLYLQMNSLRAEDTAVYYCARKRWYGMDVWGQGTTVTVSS VL: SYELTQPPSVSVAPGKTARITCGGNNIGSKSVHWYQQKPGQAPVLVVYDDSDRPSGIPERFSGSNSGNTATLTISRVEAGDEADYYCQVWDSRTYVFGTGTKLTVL	M⁻¹ s⁻¹	170000
B02 scFv-Fc (scFv, V domains shown, Tested as scFv-Fc fusion (human IgG1 Fc, vector pDNL9) in crude yeast supernatant; Combo 1 library) VH: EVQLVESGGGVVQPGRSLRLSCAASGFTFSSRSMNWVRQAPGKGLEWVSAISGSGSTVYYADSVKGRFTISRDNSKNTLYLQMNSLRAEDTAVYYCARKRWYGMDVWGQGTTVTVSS VL: SYELTQPPSVSVAPGKTARITCGGNNIGVKSVHWYQQKPGQAPVLVVYDDSDRSPGIPERFSGSNSGNTATLTISRVEAGDEADYYCQVWDSRTYVFGTGTKLTVL	M⁻¹ s⁻¹	180000
B05 scFv-Fc (scFv, V domains shown, Tested as scFv-Fc fusion (human IgG1 Fc, vector pDNL9) in crude yeast supernatant; Combo 1 library) VH: EVQLVESGGGVVQPGRSLRLSCAASGLTFSSRAMNWVRQAPGKGLEWVSAISGTGATTYYADSVKGRFTISRDNSKNTLYLQMNSLRAEDTAVYYCARKRWYGMDVWGQGTTVTVSS VL: SYELTQPPSVSVAPGKTARITCGGNNIGSKMVHWYQQKPGQAPVLVVYDDSDRPSGIPERFSGSNSGNTATLTISRVEAGDEADYYCQVWDRGMIFGTGTKLTVL	M⁻¹ s⁻¹	150000

// B01 scFv-Fc (scFv, V domains shown, Tested as scFv-Fc fusion (human IgG1 Fc, vector pDNL9) in crude yeast supernatant; Combo 1 library) VH: EVQLVESGGGVVQPGRSLRLSCAASGFTFSDRAMNWVRQAPGKGLEWVSAISYEGRTQYYADSVKGRFTISRDNSKNTLYLQMNSLRAEDTAVYYCARKRWYGMDVWGQGTTVTVSS VL: SYELTQPPSVSVAPGKTARITCGGNNIGVKSVHWYQQKPGQAPVLVVYDDSDRPSGIPERFSGSNSGNTATLTISRVEAGDEADYYCQVWDSRTYVFGTGTKLTVL : kon value = 310000

These measurements were taken from patent US20240309095A1.
